Where these numbers come from: patent US20200148755A1

Tested on: biotinylated human ApoC3 (human) (UniProt P02656)
Test description: SPR, biotinylated human ApoC3 on streptavidin chip, scFv-Fc injected, pH 7.4
Observed property: koff (s⁻¹)
// units = s⁻¹; emit number, no label

Q: Give the measured koff of 5E5WT scFv-Fc antibody (scFv, part only; not given: Linker, domain order, Fc, V domains shown, not shown: another chain or arm of the molecule; a dimerising Fc or GST; small tags and cut ends) VH: QLQLVESGGGLVQPGGSLRLSCAASGFTFGTYSMRWVRQVPRKALEWVSSISTDGGGTAYRDSVKGRFTISRDNAKNTLYLQMNNLKPEDTAIYYCVIAGYSDWGQGTQVTVSS VL: ATMLTQSPGSLSVVPGESASISCKTSQGLVHSDGKTYFYWFLQKPGQSPQQLIYQVSNRASGVPDRFTGSGSGTDFTLKISGVKAEDAGVYYCAQGTYYPHTFGSGTRLEIK .
A: 1.75e-05
